System: human esophageal cancer cells TE12
EXPERIMENT: Tumor cell growth inhibitory activity (CCK-8), TE12
Assay type: cell-based
CONDITION INFO: Homo sapiens, 72 h incubation, read-out: IC50 for inhibiting the growth of tumor cells, TE12
pIC50 reference
API: returns pIC50 as number; meaning -log10 of concentration in mol/L.

These recorded examples may help you get a feel for the data.
| COMPOUND | MEASURED ENDPOINT | MEASUREMENT |
| --- | --- | --- |
| CC[C@@]1(O)C(=O)OCc2c1cc1n(c2=O)Cc2c-1nc1cc(F)c(C)c3c1c2[C@@H](NC(=O)[C@@H]1CC(F)(F)CN1)CC3 | pIC50 | 7.95 |
| CC[C@@]1(O)C(=O)OCc2c1cc1n(c2=O)Cc2c-1nc1cc(F)c(C)c3c1c2[C@H](NC(=O)C(C)(F)F)CC3 | pIC50 | 8.12 |
| CC[C@@]1(O)C(=O)OCc2c1cc1n(c2=O)Cc2c-1nc1cc(F)c(C)c3c1c2[C@@H](NC(=O)C(F)F)CC3 | pIC50 | 7.73 |
| CC[C@@]1(O)C(=O)OCc2c1cc1n(c2=O)Cc2c-1nc1cc(F)c(C)c3c1c2[C@@H](NC(=O)C(N)C(F)(F)F)CC3 (some centres unmarked) | pIC50 | 7.68 |

Okay, now this compound:
Reported pIC50 for CC[C@@]1(O)C(=O)OCc2c1cc1n(c2=O)Cc2c-1nc1cc(F)c(C)c3c1c2[C@@H](NC(=O)CO)CC3 [Dxd, reference compound] : what is it?
7.67
